biological target: SA variant RBD (R319-F541 with K417N, E484K, N501Y), C-terminal 6-His (SARS-CoV-2, UniProt P0DTC2 319-541); assay: lateral flow NC50, RBD-AuNP vs immobilised ACE2
Label yes when IC50 is strictly below 2 µg/mL; otherwise label no.

These recorded examples may help you get a feel for the data.
1035224 (antibody, V domains shown) VH: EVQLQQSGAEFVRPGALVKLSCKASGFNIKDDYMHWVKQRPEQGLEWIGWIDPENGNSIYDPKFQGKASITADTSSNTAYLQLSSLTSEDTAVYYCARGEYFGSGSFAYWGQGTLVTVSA VL: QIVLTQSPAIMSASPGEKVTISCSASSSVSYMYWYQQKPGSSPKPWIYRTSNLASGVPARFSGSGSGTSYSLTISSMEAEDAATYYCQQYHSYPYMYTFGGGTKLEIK | yes
1035709 (antibody, V domains shown) VH: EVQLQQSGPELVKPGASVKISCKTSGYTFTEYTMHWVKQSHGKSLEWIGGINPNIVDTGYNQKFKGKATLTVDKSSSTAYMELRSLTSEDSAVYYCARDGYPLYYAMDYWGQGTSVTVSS VL: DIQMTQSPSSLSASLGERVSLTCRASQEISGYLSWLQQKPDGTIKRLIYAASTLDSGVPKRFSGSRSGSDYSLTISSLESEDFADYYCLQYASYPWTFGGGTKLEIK | yes
1035753 (antibody, V domains shown) VH: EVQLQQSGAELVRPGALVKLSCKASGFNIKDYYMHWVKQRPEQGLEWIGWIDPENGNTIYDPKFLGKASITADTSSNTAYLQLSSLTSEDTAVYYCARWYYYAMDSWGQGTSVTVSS VL: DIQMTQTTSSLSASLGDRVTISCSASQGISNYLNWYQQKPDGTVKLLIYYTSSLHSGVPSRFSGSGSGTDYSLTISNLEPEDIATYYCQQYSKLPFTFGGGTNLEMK | no
1035419 (antibody, V domains shown) VH: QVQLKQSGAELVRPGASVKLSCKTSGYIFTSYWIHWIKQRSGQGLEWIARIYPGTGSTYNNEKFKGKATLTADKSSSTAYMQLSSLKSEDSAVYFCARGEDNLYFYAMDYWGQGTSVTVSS VL: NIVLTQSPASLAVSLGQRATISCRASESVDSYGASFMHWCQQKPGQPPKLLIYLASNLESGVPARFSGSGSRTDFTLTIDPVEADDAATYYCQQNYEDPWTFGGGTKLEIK | no
1035740 (antibody, V domains shown) VH: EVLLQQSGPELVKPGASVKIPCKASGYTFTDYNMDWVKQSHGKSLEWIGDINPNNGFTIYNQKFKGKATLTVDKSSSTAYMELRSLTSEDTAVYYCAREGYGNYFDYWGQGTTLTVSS VL: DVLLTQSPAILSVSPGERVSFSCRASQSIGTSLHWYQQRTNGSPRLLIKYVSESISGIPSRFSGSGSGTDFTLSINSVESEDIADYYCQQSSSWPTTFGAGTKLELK | yes

As a next step, examine the binder that follows.
Incoming: In plain terms, does 1035762 (antibody, V domains shown) VH: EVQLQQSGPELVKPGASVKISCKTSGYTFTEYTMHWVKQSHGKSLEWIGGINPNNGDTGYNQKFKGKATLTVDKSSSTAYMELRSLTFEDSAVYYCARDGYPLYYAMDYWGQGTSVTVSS VL: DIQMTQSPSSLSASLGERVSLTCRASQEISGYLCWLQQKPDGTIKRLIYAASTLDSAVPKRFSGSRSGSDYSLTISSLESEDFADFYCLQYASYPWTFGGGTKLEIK come in under 2 µg/mL for IC50?
Outgoing: yes

The measured values listed here are drawn from patent US20230408517A1.
